# System: powdery mildew
# experiment_notes: Test Example 9: control test of wheat powdery mildew, cup in greenhouse, inoculated, Norin No. 61 (Tables 10 to 14)
# Assay type: in vivo, Blumeria graminis
# Set-up: key: Σ(index×leaves)/(4×leaves investigated)×100; 0 = no disease, 100 = max
# recorded_conditions: Table 12 run (different day); Foliage Treatment, spray 10 ppm (10 g/ha)
quantity_measured: Degree of Disease Occurrence

Please review the entries below; each comes with its answer.
            smiles_record  test_result
0     N=C(N)c1snc(Cl)c1Cl         36.7
1   CCNC(=N)c1snc(Cl)c1Cl         80.0
2  N/C(=N\O)c1snc(Cl)c1Cl         43.3

Please look at the following compound next.
Sample N=C(Nc1ccccc1)c1snc(Cl)c1Cl , system: powdery mildew. Its Degree of Disease Occurrence is 63.3

====

# Tested on: powdery mildew
# experiment_notes: Test Example 9: control test of wheat powdery mildew, cup in greenhouse, inoculated, Norin No. 61 (Tables 10 to 14)
# Type: in vivo, Blumeria graminis
# Design: key: Σ(index×leaves)/(4×leaves investigated)×100; 0 = no disease, 100 = max
# recorded_conditions: Table 13 run (different day); Foliage Treatment, spray 50 ppm (50 g/ha)
Reported Degree of Disease Occurrence values for a set of molecules
Please reply with the number alone, leaving off any unit.

Please review the entries below; each comes with its answer.
In [3]: df
Out[3]:
                  smiles_record             quantity_measured  test_result
0         CC(=O)OCc1snc(Cl)c1Cl  Degree of Disease Occurrence         71.5
1  O=C(OCc1snc(Cl)c1Cl)c1ccccc1  Degree of Disease Occurrence         86.7
2          COC(=O)c1snc(Cl)c1Cl  Degree of Disease Occurrence         77.1
3          COC(=N)c1snc(Cl)c1Cl  Degree of Disease Occurrence         67.6

Please look at the following molecule next.
Reported Degree of Disease Occurrence for N/C(=N\O)c1snc(Cl)c1Cl was 42.4

====

# Tested on: septoria leaf blotch
# experiment_notes: Test Example 10: control test of septoria leaf blotch of wheat, cup in greenhouse, inoculated, variety ARKEOS (Tables 15 to 19)
# Type: in vivo, Septoria tritici
# recorded_conditions: Table 19; Seed Treatment, 0.5 g/Seed 1 kg (corresponding to 50 g/ha); untreated 45.0
quantity_measured: Degree of Disease Occurrence
Please reply with the number alone, leaving off any unit.

Please review the entries below; each comes with its answer.
In [3]: df
Out[3]:
                                   compound  test_result
0  N=C(OCc1ccccc1)c1snc(Cl)c1Cl [Compound (12)]         10.3
1    N/C(=N\O)c1snc(Cl)c1Cl [Compound (17)]         29.4
2  N=C(Nc1ccccc1)c1snc(Cl)c1Cl [Compound (16)]         29.4

Please look at the following compound next.
Sample CCNC(=N)c1snc(Cl)c1Cl [Compound (15)] , system: septoria leaf blotch. Its Degree of Disease Occurrence is 10.3

====

# Tested on: septoria leaf blotch
# experiment_notes: Test Example 10: control test of septoria leaf blotch of wheat, cup in greenhouse, inoculated, variety ARKEOS (Tables 15 to 19)
# Assay type: in vivo, Septoria tritici
# recorded_conditions: Table 19; Seed Treatment, 0.5 g/Seed 1 kg (corresponding to 50 g/ha); untreated 98.0
quantity_measured: Disease Leaf Rate (%)
Provide the reading as a plain figure in %.

In [3]: df
Out[3]:
                  smiles_record  unit_of_measurement  test_result
0  N=C(OCc1ccccc1)c1snc(Cl)c1Cl                    %         41.3
1         CCNC(=N)c1snc(Cl)c1Cl                    %         41.3
2   N=C(Nc1ccccc1)c1snc(Cl)c1Cl                    %         82.5

Reported Disease Leaf Rate (%) for N/C(=N\O)c1snc(Cl)c1Cl was 82.5
